Values compiled from ChEMBL document CHEMBL4513216.

Test: Toxicity liver stage against HepG2, at 10uM
Assay type: cell-based
Parameters: test concentration 10 uM, cell line HepG2-A16-CD81EGFP
Conditions: human, HepG2-A16-CD81EGFP cells; read-out: INHIBITION
For each of the compounds below, state its cytotoxicity at 10 µM.
Form entry: value (%) — number only.

Record request: cytotoxicity at 10 µM value, item CCN(CC)S(=O)(=O)NC1CCCc2nc(-c3ccccc3)ncc21 (stereo not given) 17.2

Record request: cytotoxicity at 10 µM value, item CC(=O)Nc1ncc(S(=O)(=O)Nc2cccc(F)c2)s1 2.93

Record request: cytotoxicity at 10 µM value, item O=C(NCC(O)c1ccsc1)c1sccc1OC(F)F (stereo not given) -16

Record request: cytotoxicity at 10 µM value, item CCOc1ncccc1CNC(=O)Nc1ccccc1 -4.87

Record request: cytotoxicity at 10 µM value, item Cn1cc(C(=O)N2CCCC(CN3CCCC3=O)C2)cn1 (stereo not given) -12.6

Record request: cytotoxicity at 10 µM value, item Cc1nc2c(c(NC3CC3)n1)CCN(C(=O)C(C)(C)O)CC2 4.24

Record request: cytotoxicity at 10 µM value, item COc1cc(-n2cccc2)c(Cl)cc1C(N)=O -10.4

Record request: cytotoxicity at 10 µM value, item Cc1cc(CN(C)C(=O)c2ccc(Cl)c(S(C)(=O)=O)c2)no1 -2.77

Record request: cytotoxicity at 10 µM value, item COc1cccc(CN2CCCCCC2c2cccs2)c1OC (stereo not given) 8.29

Record request: cytotoxicity at 10 µM value, item CC(c1cccnc1)N(C)Cc1ccccn1 (stereo not given) 0.423

Record request: cytotoxicity at 10 µM value, item O=C(COCCOc1ccccc1)NC1CCN(C(=O)C2CC2)CC1 -7.67

Record request: cytotoxicity at 10 µM value, item Cc1cccc(N2CCN(CCS(=O)(=O)c3ccc(Br)cc3)CC2)c1C 21.9

Record request: cytotoxicity at 10 µM value, item Cc1cccc(C(=O)Nc2c(C(=O)N(C)C)nn(C)c2C)c1 7.58

Record request: cytotoxicity at 10 µM value, item Cn1ncc2c(=O)[nH]c(CN3CCCC3c3cccs3)nc21 (stereo not given) -4.43

Record request: cytotoxicity at 10 µM value, item Cc1ccc(N2CCc3ncnc(C)c3CC2)nn1 -93.6

Record request: cytotoxicity at 10 µM value, item CC(C)N(C)Cc1cncc2c1CCN(Cc1cccs1)C2 -112

Record request: cytotoxicity at 10 µM value, item Cc1cn2c(n1)CCC(NC(=O)c1cnc(C)nc1C(C)C)C2 (stereo not given) -0.144

Record request: cytotoxicity at 10 µM value, item c1ccc(-c2noc(CCCN3CCCC3Cn3cccn3)n2)cc1 (stereo not given) -13

Record request: cytotoxicity at 10 µM value, item O=C(c1ccco1)N1CCN(Cc2nc(C3CC3)no2)CC1 5.21

Record request: cytotoxicity at 10 µM value, item Cc1nn(C)c2c(NCc3ccccc3F)nc(C3CC3)nc12 15.5

Record request: cytotoxicity at 10 µM value, item CC(NC1(CNS(=O)(=O)N(C)C)CCCC1)c1ccccc1 (stereo not given) -5.01

Record request: cytotoxicity at 10 µM value, item CN1C(=O)C(c2cccnc2)CC12CCN(C(=O)c1ccc[nH]1)CC2 (stereo not given) -0.19

Record request: cytotoxicity at 10 µM value, item Fc1ccc(CN2CCC3(CCCN(c4nncs4)C3)C2)cc1 (stereo not given) -141

Record request: cytotoxicity at 10 µM value, item CCn1cc(S(=O)(=O)N2CCCCCC2c2cc(C)on2)cn1 (stereo not given) 7.43

Record request: cytotoxicity at 10 µM value, item COc1ccc(-n2ccc(CNCc3cccc(OC)c3)n2)cc1 3.12
